Tested on: Neutrophils purified from human peripheral blood
assay summary: Human Neutrophil Transwell Migration Assay
Assay type: cell-based
measurement parameters: conc 0.001 μg/mL; 37° C., 45 minutes; % of the maximum migration possible
Procedure: Neutrophils were purified from human peripheral blood utilizing PolymorphPrep. Red blood cells were lysed with a lysis buffer and the cells were washed, counted and resuspended in assay buffer. […] The plates were incubated at 37° C. for 45 minutes to allow for migration. After this time, migration was confirmed visually and then an aliquot (⅙^th of total cells) from each well was taken for ATP detection via luminescence with ATPlite (PerkinElmer) to quantify the number of migrated cells. […]
reported endpoint: % Neutrophil Migration

mol_smiles=CC[C@H](C)C[C@H](C)CCCCCCCCC(=O)N[C@H]1C[C@@H](O)[C@@H](OCCN)NC(=O)[C@@H]2[C@@H](O)CCN2C(=O)[C@H]([C@H](O)CCNC(=O)[C@H](Cc2ccccc2)NC(=O)[C@H](CC(C)C)NC(=O)[C@H](CCSC)NC=O)NC(=O)[C@H]([C@H](O)[C@@H](O)c2ccc(O)cc2)NC(=O)[C@@H]2C[C@@H](O)CN2C(=O)[C@H]([C@@H](C)O)NC1=O recorded_measurement=−4.7%
mol_smiles=CC[C@H](C)C[C@H](C)CCCCCCCCC(=O)N[C@H]1C[C@@H](O)[C@@H](NCCN)NC(=O)[C@@H]2[C@@H](O)CCN2C(=O)[C@H]([C@H](O)CCNC(=O)[C@H](CC(C)C)NC(=O)[C@H](CCSC)NC=O)NC(=O)[C@H]([C@H](O)[C@@H](O)c2ccc(O)cc2)NC(=O)[C@@H]2C[C@@H](O)CN2C(=O)[C@H]([C@@H](C)O)NC1=O recorded_measurement=−1.6%
mol_smiles=CC[C@H](C)C[C@H](C)CCCCCCCCC(=O)N[C@H]1C[C@@H](O)[C@@H](NCCN)NC(=O)[C@@H]2[C@@H](O)CCN2C(=O)[C@H]([C@H](O)CCNC(=O)[C@H](Cc2ccccc2)NC(=O)[C@H](CC(C)C)NC(=O)[C@H](CCSC)NC=O)NC(=O)[C@H]([C@H](O)[C@@H](O)c2ccc(O)cc2)NC(=O)[C@@H]2C[C@@H](O)CN2C(=O)[C@H]([C@@H](C)O)NC1=O recorded_measurement=−4.7%

###

Tested on: A. fumigatus ATCC 13073
assay summary: MEC assay (Example 31)
Format: cell-based
measurement parameters: RPMI pH 7.0, 35° C., 24-48 hr
reported endpoint: MEC

compound="C[C@@H]1[C@H](O)[C@@H](C)/C=C/C=C/C=C/C=C/C=C/C=C/C=C/[C@H](O[C@@H]2O[C@H](C)[C@@H](O)[C@H](N)[C@@H]2O)C[C@@H]2O[C@](O)(C[C@@H](O)C[C@@H](O)[C@H](O)CC[C@@H](O)C[C@@H](O)CC(=O)O[C@H]1C)C[C@H](O)[C@H]2C(=O)O [amphotericin B, reference compound]" recorded_measurement="0.5 to 4 µg/mL"
compound=CC[C@H](C)C[C@H](C)CCCCCCCCC(=O)N[C@H]1C[C@@H](O)[C@@H](NCCN)NC(=O)[C@@H]2[C@@H](O)CCN2C(=O)[C@H]([C@H](O)CCNC(=O)[C@H](CC(C)C)NC(=O)[C@H](CCSC)NC=O)NC(=O)[C@H]([C@H](O)[C@@H](O)c2ccc(O)cc2)NC(=O)[C@@H]2C[C@@H](O)CN2C(=O)[C@H]([C@@H](C)O)NC1=O recorded_measurement="8 µg/mL"

All figures here come from patent US20160213742A1.
